Provenance of the data: ChEMBL document CHEMBL1201862

System: DMS-273
assay.text: NCI tumour cell line growth inhibition, 48 h
Activity calls are given as the source filed them. No stated cut-off is given here; in the data, active = GI50 up to about 1.1 µM and inactive = higher.
property.label: GI50

molecule	subject.of.test	recorded.value
O=C1OC(c2cccc(C(F)(F)F)c2)c2ccc3ccccc3c21 (stereo not given)	DMS-273	> 10 µM (inactive)
C#CCn1c(=O)c(C#N)c(O)c2cc3ccccc3nc21	DMS-273	> 100 µM (inactive)
CCOc1ccccc1NC(=O)C(=O)C1C(=O)Nc2ccccc2[S+]1[O-] (stereo not given)	DMS-273	> 100 µM (inactive)
CCOC(=O)NC(=O)c1cn(C2OC(COC(=O)CCCCCCCCC(=O)OCC3OC(n4cc(C(=O)NC(=O)OCC)c(=O)[nH]c4=O)C4OC(C)(C)OC34)C3OC(C)(C)OC32)c(=O)[nH]c1=O (stereo not given)	DMS-273	60.1 µM (inactive)
CSC(=N)NNC(=O)CCC(=O)Nc1ccccc1C(F)(F)F	DMS-273	> 100 µM (inactive)
COc1ccc(CCNCCCC2c3ccccc3-c3ccccc32)cc1OC	DMS-273	7.28 µM (inactive)
CCC(C)(O)c1cn(-c2cccc(S(=O)(=O)O)c2)nn1 (stereo not given)	DMS-273	> 100 µM (inactive)
N#C/C(=C\c1ccc2[nH]ccc2c1)C(=O)c1ccc(O)c(O)c1	DMS-273	57.3 µM (inactive)
COc1cc(C(C)c2cc3c(cc2OCCCCCOc2cc4c(cc2C(C)c2cc(OC)c(OC)c(OC)c2)OCO4)OCO3)cc(OC)c1OC (stereo not given)	DMS-273	> 100 µM (inactive)
O=C1NC(c2cccc3ccccc23)Nc2ccc(O)cc21 (stereo not given)	DMS-273	10.4 µM (inactive)
